assay_info: chemical genetic growth profiling, strain panel (AID 1159580);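 further: tested at 20 µM; growth read once vehicle control cultures reached saturation at 30 °C; 1 = growth at the plate median or of vehicle wells; lower values mean less growth of the strain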
protocol_conditions: S. cerevisiae deletion strains, growth OD, locus YMR223W, strain ubp8, stronger effect = lower value
The whole screen tested about 5,500 compounds, of which about 2,000 (36%) were called active. Another 18% or so got no clear call; they are omitted. The list shows a part of the results.
metric_name: normalized growth
// no unit, no text: just the number

stdin: So what's the measured normalized growth for this one? `CNC[C@H](O)c1cccc(O)c1`
stdout: 1.01

stdin: So what's the measured normalized growth for this one? `CSc1nc(NC(C)C)nc(NC(C)C)n1`
stdout: 1.01

stdin: So what's the measured normalized growth for this one? `COC(=O)NC(=S)Nc1ccccc1NC(=S)NC(=O)OC`
stdout: 0.978

stdin: So what's the measured normalized growth for this one? CC(=O)OC1CC[C@@]2(C)C(CCC3C2CC[C@]2(C)C(C4=CC(=O)OC4)C(OC(C)=O)CC32O)C1 (stereo not given in full)
stdout: 1

stdin: So what's the measured normalized growth for this one? CC1(C)S[C@@H]2C(N3C(=O)[C@@H](c4ccccc4)NC3(C)C)C(=O)N2[C@H]1C(=O)O (stereo not given in full)
stdout: 1.04

stdin: So what's the measured normalized growth for this one? `COc1nc(NC(C)C)nc(NC(C)C)n1`
stdout: 1.02

stdin: So what's the measured normalized growth for this one? C[C@@H](CO)NC(=O)C1C=C2c3cccc4[nH]cc(c34)C[C@H]2N(C)C1 (stereo not given in full)
stdout: 0.988

stdin: So what's the measured normalized growth for this one? `COc1ccc(-c2cc(=O)c3c(O)cc(O)cc3o2)cc1`
stdout: 0.982

stdin: So what's the measured normalized growth for this one? CC1(C)S[C@@H]2[C@H](NC(=O)C(C(=O)O)c3ccccc3)C(=O)N2[C@H]1C(=O)O (stereo not given in full)
stdout: 0.987

stdin: So what's the measured normalized growth for this one? `CC[C@@]1(O)C(=O)OCc2c1cc1n(c2=O)Cc2cc3cc(O)ccc3nc2-1`
stdout: 0.981

stdin: So what's the measured normalized growth for this one? COC1C(O)C(O[C@H]2CC[C@]3(C=O)C4C(CC[C@]3(O)C2)[C@@]2(O)CC[C@H](C3=CC(=O)OC3)[C@@]2(C)C[C@H]4OC(C)=O)OC(C)C1OC(C)=O (stereo not given in full)
stdout: 1.01

stdin: So what's the measured normalized growth for this one? `COC1=CC(=O)C=C(OC)C1=O`
stdout: 0.993

stdin: So what's the measured normalized growth for this one? `COc1cc(O)c2c(=O)cc(-c3ccc(O)cc3)oc2c1`
stdout: 1.04

stdin: So what's the measured normalized growth for this one? `COC(=O)[C@H]1[C@H]2C[C@H]3c4[nH]c5cc(OC)ccc5c4CCN3C[C@H]2C[C@@H](OC(=O)c2cc(OC)c(OC)c(OC)c2)[C@@H]1OC`
stdout: 1.02

stdin: So what's the measured normalized growth for this one? `O=C(O)c1cc(O)ccc1O`
stdout: 1.04

stdin: So what's the measured normalized growth for this one? `CCc1ccc2c(O)c3c(cc2c1C(=O)OC)C(=O)c1c(O)ccc(O)c1C3=O`
stdout: 0.933

stdin: So what's the measured normalized growth for this one? C[C@H]1O[C@@H](O[C@H]2[C@@H](O)C[C@H](O[C@H]3[C@@H](O)C[C@H](O[C@H]4CC[C@]5(C)C6CC[C@]7(C)[C@@H](C8=CC(=O)OC8)CC[C@]7(O)C6CC[C@@H]5C4)O[C@@H]3C)O[C@@H]2C)C[C@H](O)[C@@H]1O (stereo not given in full)
stdout: 0.966

stdin: So what's the measured normalized growth for this one? C[C@]12CC[C@H](O)C[C@H]1CCC1C2CC[C@]2(C)[C@@H](C3=CC(=O)OC3)[C@@H](O)C[C@]12O (stereo not given in full)
stdout: 1

stdin: So what's the measured normalized growth for this one? `COc1ccc(-c2cc(=O)c3c(O)c(OC)c(OC)cc3o2)cc1O`
stdout: 0.99

stdin: So what's the measured normalized growth for this one? CC(=O)N1CCCC1C(=O)O (stereo not given)
stdout: 1.01
